pIC50: −log10 of the molar value.
Several reports have described pIC50 for Cytochrome P450 2C9 (Homo sapiens); a selection of those results is presented here.

Some solved cases for reference:
# sampleSmiles, assayEndpoint, result
measured = [
    ("COc1ccccc1/C=C/C(=O)c1cccnc1", "pIC50", "< 4.70"),
    ("O=C(O)Cn1c2c(c3ccccc31)CN(C(=O)c1cccc3ccccc13)CC2", "pIC50", 4.40),
]

API: the following record is the query input.
Input: Value lookup for pIC50; key = COc1ccc(-c2ccc(Oc3cccc4c3CCCC4)c(NC(=O)Nc3ccccc3C)c2)cc1C(=O)O
Output: < 5.52

###

Dear all, I have gathered published IC50 values for Cytochrome P450 2C9 (Homo sapiens); the list follows.

# compound, experimentalSystem, result
rows = [
    ("C[C@@H](c1ccc(-c2ccc(=O)n(C)n2)cc1)N1CC[C@](CC(C)(C)O)(c2ccccc2)OC1=O", "Cytochrome P450 2C9 (Homo sapiens)", "> 50 µM"),
    ("COC(=O)C1=C(Cn2cnnn2)NC(C)=C(C#N)[C@H]1c1ccc(F)cc1Cl", "Cytochrome P450 2C9 (Homo sapiens)", "> 10 µM"),
    ("O=C(O)c1cc(NC(=O)[C@H](Cc2ccccc2)NCc2cscn2)cc(-c2ccncc2)c1", "Cytochrome P450 2C9 (Homo sapiens)", "> 30 µM"),
    ("Nc1cc(CN2CCC(F)(C(=O)N3CCC(N4CCCc5ccccc5C4)CC3)CC2)ccn1", "Cytochrome P450 2C9 (Homo sapiens)", "> 30 µM"),
    ("C[C@@H]1CCCN1CCc1ccc(-c2ccc(=O)n(-c3ccc(F)cc3)n2)cc1", "Cytochrome P450 2C9 (Homo sapiens)", "> 30 µM"),
]

Input: # IC50 lookup, item COC(=O)N[C@H](C(=O)N1CCC[C@H]1c1ncc(-c2ccc(N=[N+]=[N-])cc2)[nH]1)C(C)C
Output: > 100 µM

Input: Lookup Cc1cccc(-c2[nH]c(NCc3cccc(F)c3)nc2-c2ccc3c(cnn3C(F)F)c2)n1
Output: > 10 µM

Input: And for CC1(c2ccccc2)CCCN(C(=O)Nc2ccc(Cl)cc2)C1 (centres undefined) ?
Output: > 10 µM

Input: Another compound to look at: COc1ccccc1-c1ccc2cnc(Nc3ccc(N4CCN(C)CC4)cc3)nn12
Output: > 30 µM
